# system_tested: T1, P8bHq
# T1 chain: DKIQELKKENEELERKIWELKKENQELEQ
# method_summary: two-hybrid library CCNG1;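 further: natural log of median RNA to DNA barcode read ratio; higher means stronger binding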
Here the recorded interaction score is given for each entry.
assay_readout: interaction score

In [3]: df
Out[3]:
                                    binder  measured_value
 0   DENQELEKKIEELKRKNWELKKEIQELEQ [P5bHq]           0.944
 1   DEIQELEKENEELERENWELEKEIQELEQ [P1bHq]          -0.272
 2   DKIQELKKKNEELKRKNWELKKKIQELKQ [P2bHq]           0.361
 3   DKIQELKKKIEELKRENWELEKENQELEQ [P4bHq]          -0.273
 4   DEIQELEKEIEELERKNWELKKKNQELKQ [P3bHq]           0.414
 5  DKNQELKKKIEELKRKIWELKKENQELEQ [P12bHq]          -0.489
 6  DKNQELKKENEELERKIWELKKKIQELKQ [P10bHq]          -0.382
 7   DKIQELKKENEELERKIWELKKENQELEQ [P8bHq]          -0.229
 8   DKNQELKKEIEELERENWELEKKIQELKQ [P6bHq]               1
 9   DEIQELEKKNEELKREIWELEKKNQELKQ [P7bHq]            2.08
10  DENQELEKEIEELEREIWELEKKNQELKQ [P11bHq]           0.862
